Target: BRD4 short isoform (Homo sapiens, UniProt O60885)
Construct: endogenous in cells; host or cells: MDA-MB-468
Test: BRD4 degradation assay (Western blot, MDA-MB-468 cells), short isoform
Type: cell-based
Settings: 24 h, 5 μM, MDA-MB-468, n = 2
measurementName: % Mean Degradation of BRD4 (%)
Write down the numeric answer in % and omit the unit.

Worked cases, answers included:
compound	assayedSystem	uom	% Mean Degradation of BRD4
Cc1sc2c(c1C)C(c1ccc(Cl)cc1)=N[C@@H](CC(=O)NCC(=O)NCCNC(=O)[C@@]1(C)CCCC[C@H]1C(=O)N1CCc3c(Cl)ccc(OCc4nnn(C)c4C)c3[C@H]1CN1CC3(CC3)CC1=O)c1nnc(C)n1-2 [Comparative Example 1, reference compound]	BRD4 short isoform (Homo sapiens, UniProt O60885)	%	43
CNC(=O)[C@@]1(C)CCCC[C@H]1C(=O)N1CCc2c(Cl)ccc(OCc3nnn(CCNC(=O)CNC(=O)C[C@@H]4N=C(c5ccc(Cl)cc5)c5c(sc(C)c5C)-n5c(C)nnc54)c3C)c2[C@H]1CN1CC2(CC2)CC1=O	BRD4 short isoform (Homo sapiens, UniProt O60885)	%	97
Cc1sc2c(c1C)C(c1ccc(Cl)cc1)=N[C@@H](CC(=O)NCCOCCOCCNC(=O)[C@@]1(C)CCCC[C@H]1C(=O)N1CCc3c(Cl)ccc(OCc4nnn(C)c4C)c3[C@H]1CN1CC3(CC3)CC1=O)c1nnc(C)n1-2 [Comparative Example 3, reference compound]	BRD4 short isoform (Homo sapiens, UniProt O60885)	%	18
Cc1sc2c(c1C)C(c1ccc(Cl)cc1)=N[C@@H](CC(=O)NCCOCCNC(=O)[C@@]1(C)CCCC[C@H]1C(=O)N1CCc3c(Cl)ccc(OCc4nnn(C)c4C)c3[C@H]1CN1CC3(CC3)CC1=O)c1nnc(C)n1-2 [Comparative Example 2, reference compound]	BRD4 short isoform (Homo sapiens, UniProt O60885)	%	26
Cc1sc2c(c1C)C(c1ccc(Cl)cc1)=N[C@@H](CC(=O)NCC(=O)NCCOCC(=O)N1CC[C@H](Oc3ccc(Cl)c4c3[C@@H](CN3CC5(CC5)CC3=O)N(C(=O)[C@@H]3CCCC[C@]3(C)C(=O)O)CC4)C1)c1nnc(C)n1-2	BRD4 short isoform (Homo sapiens, UniProt O60885)	%	95

Exam item: Give the measured % Mean Degradation of BRD4 of Cc1sc2c(c1C)C(c1ccc(Cl)cc1)=N[C@@H](CC(=O)NCC(=O)NCCOCc1c(COc3ccc(Cl)c4c3[C@@H](CN3CC5(CC5)CC3=O)N(C(=O)[C@@H]3CCCC[C@]3(C)C(=O)O)CC4)nnn1C)c1nnc(C)n1-2 .
Marked response: 87

Exam item: Give the measured % Mean Degradation of BRD4 of Cc1sc2c(c1C)C(c1ccc(Cl)cc1)=N[C@@H](CC(=O)NCCOCCC(=O)NCCOCc1c(COc3ccc(Cl)c4c3[C@@H](CN3CC5(CC5)CC3=O)N(C(=O)[C@@H]3CCCC[C@]3(C)C(=O)O)CC4)nnn1C)c1nnc(C)n1-2 .
Marked response: 78

Exam item: Give the measured % Mean Degradation of BRD4 of Cc1sc2c(c1C)C(c1ccc(Cl)cc1)=N[C@@H](CC(=O)NCCC(=O)NCCOCc1c(COc3ccc(Cl)c4c3[C@@H](CN3CC5(CC5)CC3=O)N(C(=O)[C@@H]3CCCC[C@]3(C)C(=O)O)CC4)nnn1C)c1nnc(C)n1-2 .
Marked response: 75

* * *

Below is a list of entries, each paired with its recorded % Mean Degradation of BRD4 value.
Target: BRD4 long isoform (Homo sapiens, UniProt O60885)
Construct: endogenous in cells; host or cells: MDA-MB-468
Test: BRD4 degradation assay (Western blot, MDA-MB-468 cells), long isoform
Assay type: cell-based
Settings: 48 h, 0.1 μM, MDA-MB-468, n = 2
Write down the numeric answer in % and omit the unit.

compound	measurementName	recordedNumber
Cc1sc2c(c1C)C(c1ccc(Cl)cc1)=N[C@@H](CC(=O)NCC(=O)NCCOCC(=O)N1CC[C@H](Oc3ccc(Cl)c4c3[C@@H](CN3CC5(CC5)CC3=O)N(C(=O)[C@@H]3CCCC[C@]3(C)C(=O)O)CC4)C1)c1nnc(C)n1-2 [Example 6]	% Mean Degradation of BRD4	−27
Cc1sc2c(c1C)C(c1ccc(Cl)cc1)=N[C@@H](CC(=O)NCC(=O)NCCNC(=O)[C@@]1(C)CCCC[C@H]1C(=O)N1CCc3c(Cl)ccc(OCc4nnn(C)c4C)c3[C@H]1CN1CC3(CC3)CC1=O)c1nnc(C)n1-2 [Comparative Example 1, reference compound]	% Mean Degradation of BRD4	−39
Cc1sc2c(c1C)C(c1ccc(Cl)cc1)=N[C@@H](CC(=O)NCCOCCC(=O)NCCOCc1c(COc3ccc(Cl)c4c3[C@@H](CN3CC5(CC5)CC3=O)N(C(=O)[C@@H]3CCCC[C@]3(C)C(=O)O)CC4)nnn1C)c1nnc(C)n1-2 [Example 5]	% Mean Degradation of BRD4	34

Exam item: Give the measured % Mean Degradation of BRD4 of Cc1sc2c(c1C)C(c1ccc(Cl)cc1)=N[C@@H](CC(=O)NCCC(=O)NCCOCc1c(COc3ccc(Cl)c4c3[C@@H](CN3CC5(CC5)CC3=O)N(C(=O)[C@@H]3CCCC[C@]3(C)C(=O)O)CC4)nnn1C)c1nnc(C)n1-2 [Example 4] .
Marked response: −19
